Hello, the source for this data is PubChem BioAssay AID2806, in case you need it.

test system: intestinal alkaline phosphatase [Mus musculus]; test: mouse intestinal phosphatase enzyme inhibition – biochemical, luminescence, uHTS, primary screen (AID 2806); conditions: purified mouse IAP, CDP-Star luminescence, 30 min; at 10 µM; hits give high values;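 further: plate controls were DMSO with enzyme for no effect and no enzyme wells for full effect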
The campaign covered roughly 330,000 compounds. About 660 (0.2%) were called active. The full list was thinned out, with actives kept by preference.
result type: inhibition (%)
Numbers only, in %.

The following compounds have reported results that may help.
>>> recorded_number("CN(CC(=O)NNC(=O)CNC(=O)c1ccccc1Cl)S(=O)(=O)c1ccc(Cl)cc1")
-5.3
>>> recorded_number("Cc1ccc(C(=O)N/N=C/c2sc(=O)n(Cc3cccc(C(=O)O)c3)c2Cl)cc1")
11.7
>>> recorded_number("CN1CCCc2cc(C#N)c(=O)[nH]c21")
5.2

Provide the reported inhibition of each entry below, same order.
1. Cc1ccccc1CN1CCC(C(=O)Nc2ccc(Oc3cccnc3)cc2)CC1
2. Cc1cc(C)c(C)c(S(=O)(=O)N[C@@H](C)C(=O)OC(C)C(=O)NC(N)=O)c1C (stereo not given in full)
3. CCCC(=O)Nc1ccc(C(=O)N/N=C/c2ccc[nH]2)cc1
4. CCCC(=O)Nc1ccc(C(=O)NCCCn2ccnc2)cc1
5. COc1cccc(C(=O)OCc2cc(=O)oc3c(C)c(C)ccc23)c1OC

1. -39.6
2. -4.2
3. 40.9
4. -4.6
5. 8.2

Provide the reported inhibition of each entry below, same order.
1. CC(=O)Nc1ccc(C(=O)/C=C/c2ccc[nH]2)cc1
2. O=C(CCC(=O)OCc1cccc(C(=O)Oc2ccccc2)c1)Nc1cccc2ccccc12

1.1
3.6
